- System: TK-10 renal
- test.method.notes: NCI-60 one-dose screen, 48 h (100 = growth as untreated, 0 = no growth, -100 = all killed)
- run.parameters: 10 µM unless noted
- Protocol: Growth inhibition of the TK-10 human tumor cell line is measured as a screen for anti-cancer activity. Cells are grown in 96 well plates and exposed to the test compound for 48 hours. Compounds are tested at a single concentration, which is 10^-5 M for most compounds. The reported endpoint is percent growth (GI% or GIPRCNT), where numbers from 0 - 100% represent growth inhibition, and numbers from -100% - 0 represent cell death. For example, a value of 40 represents 60% growth inhibition. […]
This is part of a sample that, as a whole, favours compounds with a hit. Of some 83,000 tested, about 20% had one in any assay.
observed.property: growth (%)
Give bare numbers, in %.

CCNc1cc(-c2cccc(OC(F)(F)F)c2)nc2ccc(N3CCCC3)cc12	35.5

Can you give me growth for all of these, one by one?
1. Cc1ccc(/C=N/Nc2nc(Nc3ccccc3)nc(-n3nc(C)cc3C)n2)cc1
2. CC12CCC3c4ccccc4CCC3(CO1)C2 (centres undefined)
3. O=C(/C=C/c1cn(-c2ccccc2)nc1-c1ccc([N+](=O)[O-])cc1)c1ccc(Cl)cc1
4. O=C(N/N=C/c1ccc(F)cc1)c1ccc(C(F)(F)F)nc1Nc1cccc(C(F)(F)F)c1

1: 3.47; 2: 110; 3: 14.1; 4: 3.93

Please state, for each entry, its recorded growth.
1. CN1CCN(Cc2ccc3c(NNC(=O)c4ccccc4)nc4cc(F)ccc4n23)CC1
2. C[C@]12CC[C@@H]3c4ccc(O)c([N+](=O)[O-])c4CC[C@H]3[C@@H]1CCC2=O
3. O=c1oc2ccccc2cc1C1=NN=C(SCc2ccccc2)SC1

30
89
108

The value of growth measured for the compound O=C1c2cccnc2C(=O)c2c1c(C(=O)NCCn1ccnc1)c1ccccn21 turned out to be 116

###

- Test system: U251 CNS
- test.method.notes: NCI-60 one-dose screen, 48 h (100 = growth as untreated, 0 = no growth, -100 = all killed)
- run.parameters: 10 µM unless noted
This is part of a sample that, as a whole, favours compounds with a hit. Of some 83,000 tested, about 20% had one in any assay.
observed.property: growth (%)
Answers are plain numbers, in %.

Observe how each entry below is paired with its result.
O=C1CC(N2C(=O)/C(=C/C(Cl)=C\c3ccc([N+](=O)[O-])cc3)SC2=S)C(=O)N1c1ccc(Cl)cc1 (centres undefined)	1.45
N=C(N)c1ccc(-c2ccc(-c3ccc(Cl)cc3)s2)nc1	-68.1
COc1ccc(C(c2cc(OC)c(OC)c(OC)c2)N2CCN(c3ccccc3)CC2)cc1 (centres undefined)	96.4

Could you report growth for every entry in the following list?
1. O=C1Nc2ccccc2/C1=C\c1nc(-c2ccccc2)n2ccccc12
2. Brc1ccc(-n2cc(-c3nn[nH]n3)c(-c3cccs3)n2)cc1
3. O=C(/C=C(/C=C/c1cccc2[nH]ccc12)OB(F)F)/C=C/c1cccc2[nH]ccc12
4. COc1ccc(-c2cc(-c3ccc(Cl)cc3)c(C#N)c(=O)n2CCCCC(=O)Nc2ccccc2N)cc1
5. O=C(CCCCC1CCSS1)Nc1ncnc2n[nH]c(-c3ccc(Oc4ccccc4)cc3)c12 (centres undefined)
6. COP(=O)(OC)C(C)(C)CC(=O)CC(C#N)(C#N)C(C#N)C#N
7. O=C1/C(=C/c2cccs2)SC(=S)N1CCCN1CCOCC1
8. O=C(O)CNC1=C(Cl)C(=O)c2ccccc2C1=O

[89.6, 93, -87, 55.1, 106, 97.3, 94.8, 91.1]

For every listed record, write down its growth.
1. COc1ccc(Cc2cc(-c3ccccc3)nn(Cc3ccccc3)c2=O)cc1OC
2. N#Cc1c(-c2ccccc2)cc(-c2ccccc2)n(CCCCCC(=O)Nc2ccccc2N)c1=O
3. Cc1ccccc1/C=C1\CN(C(=O)OC(C)(C)C)C/C(=C\c2ccccc2C)C1=O

[32.7, 61.2, 0.0873]
